Source: paper PMC4015874

target: crude rat lens AR (aldose reductase) (Rattus norvegicus)
VALUE_KIND: IC50

Sample records with IC50:
C[C@@H]1O[C@@H](Oc2c(-c3ccc(O)c(O)c3)oc3cc(O)cc(O)c3c2=O)[C@H](O)[C@H](O)[C@H]1O : 0.17 µM
O=C(O)CC1(CC(=O)O)CCCC1 [Tetramethyleneglutaric acid, 3,3-tetramethyleneglutaric acid, reference compound] : 5.07 µM
O=c1c(O[C@@H]2O[C@H](CO)[C@@H](O)[C@H](O)[C@H]2O)c(-c2ccc(O)cc2)oc2cc(O[C@@H]3O[C@H](CO)[C@@H](O)[C@H](O)[C@H]3O)cc(O)c12 [Compound 2, Kaempferol 3,7-O-β-D-diglucopyranoside] : > 50 µM
COc1cc(/C=C/C(=O)O)ccc1O : > 50 µM
O=c1c(O[C@@H]2O[C@H](CO)[C@@H](O)[C@H](O)[C@H]2O)c(-c2ccc(O[C@@H]3O[C@H](CO)[C@@H](O)[C@H](O)[C@H]3O)cc2)oc2cc(O[C@@H]3O[C@H](CO)[C@@H](O)[C@H](O)[C@H]3O)cc(O)c12 : > 50 µM

Req: // query IC50 value for entry O=C(O)C=Cc1ccc(O)cc1 [Compound 7, 4-hydroxycinnamic acid]
Resp: > 50 µM

Req: // query IC50 value for entry O=c1c(O[C@@H]2O[C@H](CO)[C@@H](O)[C@H](O)[C@H]2O)c(-c2ccc(O[C@@H]3O[C@H](CO)[C@@H](O)[C@H](O)[C@H]3O)cc2)oc2cc(O)cc(O)c12 [Compound 3, kaempferol 3,4’-O-β-D-diglucopyranoside]
Resp: 9.77 µM
